This section presents substances with their documented Tm, RNA target values.
Tested on: RNA target; 5′-rGCU AGA GAA GUC G (SEQ ID NO: 38)
Assay: UV thermal melting, two triazole linkages (MeC-T steps), RNA target
Assay type: binding
Details: Table 6; 10 mM phosphate, 200 mM NaCl, pH 7.0, 3.0 μM each strand
In the oligonucleotide strings, read from the 5' end, every base follows the letter of its sugar. An asterisk marks phosphorothioate; unmarked linkages are phosphodiester. Other units and linkages are bracketed, terminal groups are in braces. A string of capitals states the bases alone. [tz] = triazole internucleoside linkage replacing phosphodiester; l = locked nucleic acid (LNA); [5mC] = 5-methylcytosine; d = 2'-deoxy (DNA)
Provide the reading as a plain figure in °C.

CGA^MeCTTCT^MeCTAGC (DNA dCdGdAd[5mC]dTdTdCdTd[5mC]dTdAdGdC) [ON7]	58.8
5′-dCGA^MeCtTTCT^MeCtTAGC (DNA dCdGdAd[5mC][tz]dTdTdCdTd[5mC][tz]dTdAdGdC; further chemistry not given here) [ON9]	47.1
5′-dCGA^MeCtT^LTCT^MeCtT^LAGC (DNA dCdGdAd[5mC][tz]lTdTdCdTd[5mC][tz]lTdAdGdC; further chemistry not given here) [ON8]	57.1

Let's switch to this substance now.
Supply reported Tm, RNA target belonging to this substance: CGA^MeCT^LTCT^MeCT^LAGC (DNA dCdGdAd[5mC]lTdTdCdTd[5mC]lTdAdGdC) [ON10] 70.0

Cited source for all entries: patent US11104700B2
